target: Transient receptor potential cation channel subfamily A member 1 (Homo sapiens, UniProt O75762); assay: Antagonist activity at human TRPA1 channel assessed as inhibition of 4-hydroxy-2-nonenal-induced response; format: functional
Sequence (O75762 whole entry): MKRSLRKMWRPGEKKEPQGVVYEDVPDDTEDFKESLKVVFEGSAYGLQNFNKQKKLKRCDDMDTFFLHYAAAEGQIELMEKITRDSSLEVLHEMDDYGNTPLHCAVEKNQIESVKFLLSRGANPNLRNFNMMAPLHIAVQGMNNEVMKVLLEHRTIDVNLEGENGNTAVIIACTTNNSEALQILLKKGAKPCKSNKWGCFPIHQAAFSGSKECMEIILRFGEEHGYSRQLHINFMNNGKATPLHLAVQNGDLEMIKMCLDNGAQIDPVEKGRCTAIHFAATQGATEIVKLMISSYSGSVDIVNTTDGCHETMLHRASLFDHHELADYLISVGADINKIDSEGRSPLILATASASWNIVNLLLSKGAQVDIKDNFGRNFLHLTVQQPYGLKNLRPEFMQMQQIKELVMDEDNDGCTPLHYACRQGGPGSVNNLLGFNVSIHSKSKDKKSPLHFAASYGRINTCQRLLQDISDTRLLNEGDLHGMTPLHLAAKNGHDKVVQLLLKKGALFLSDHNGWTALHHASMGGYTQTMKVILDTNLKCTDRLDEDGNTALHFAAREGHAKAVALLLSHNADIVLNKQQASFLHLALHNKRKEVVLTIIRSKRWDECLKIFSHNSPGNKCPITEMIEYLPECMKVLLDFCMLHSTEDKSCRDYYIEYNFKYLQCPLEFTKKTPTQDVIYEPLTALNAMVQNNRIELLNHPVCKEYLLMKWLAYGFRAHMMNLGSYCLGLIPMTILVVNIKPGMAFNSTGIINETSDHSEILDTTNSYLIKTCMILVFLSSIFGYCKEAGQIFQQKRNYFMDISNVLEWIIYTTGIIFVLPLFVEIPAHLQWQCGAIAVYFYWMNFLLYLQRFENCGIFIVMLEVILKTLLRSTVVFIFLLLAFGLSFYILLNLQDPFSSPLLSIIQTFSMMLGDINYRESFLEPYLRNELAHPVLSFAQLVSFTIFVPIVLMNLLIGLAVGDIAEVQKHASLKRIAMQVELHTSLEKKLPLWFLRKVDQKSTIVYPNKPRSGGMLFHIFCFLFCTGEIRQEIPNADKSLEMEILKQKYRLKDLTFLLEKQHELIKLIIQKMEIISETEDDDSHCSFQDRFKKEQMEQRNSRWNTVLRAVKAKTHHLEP
endpoint-label: pIC50
Note on units: pIC50 is unitless, being -log10 of a concentration expressed in mol/L.

Lookup: Would you mind telling me what pIC50 value was observed for CCC(C)c1ccc(NC(=O)Cn2cnc3c2c(=O)n(C)c(=O)n3C)cc1 (stereo unspecified) ?
Found: 4.73

###

molecular target: Transient receptor potential cation channel subfamily A member 1 (Homo sapiens, UniProt O75762); experiment: Antagonist activity at human TRPA1 channel expressed in HEK293 cells assessed as inhibition of cinnamaldehyde-induced intracellular calcium influx by FLIPR; assay type: functional, cell-based
endpoint-label: IC50 (µM)
Write it as a number; the unit µM goes unstated.

Lookup: Would you mind telling me what IC50 value was observed for `CC(C)c1ccc(NC(=O)Cn2cnc3c2c(=O)n(C)c(=O)n3C)cc1` ?
Found: 4.9

###

molecular target: Transient receptor potential cation channel subfamily A member 1 (Mus musculus); test: Antagonist activity at mouse TRPA1 channel expressed in CHO cells assessed as inhibition of cinnamaldehyde-induced intracellular calcium influx
Sequence (Q8BLA8 whole entry): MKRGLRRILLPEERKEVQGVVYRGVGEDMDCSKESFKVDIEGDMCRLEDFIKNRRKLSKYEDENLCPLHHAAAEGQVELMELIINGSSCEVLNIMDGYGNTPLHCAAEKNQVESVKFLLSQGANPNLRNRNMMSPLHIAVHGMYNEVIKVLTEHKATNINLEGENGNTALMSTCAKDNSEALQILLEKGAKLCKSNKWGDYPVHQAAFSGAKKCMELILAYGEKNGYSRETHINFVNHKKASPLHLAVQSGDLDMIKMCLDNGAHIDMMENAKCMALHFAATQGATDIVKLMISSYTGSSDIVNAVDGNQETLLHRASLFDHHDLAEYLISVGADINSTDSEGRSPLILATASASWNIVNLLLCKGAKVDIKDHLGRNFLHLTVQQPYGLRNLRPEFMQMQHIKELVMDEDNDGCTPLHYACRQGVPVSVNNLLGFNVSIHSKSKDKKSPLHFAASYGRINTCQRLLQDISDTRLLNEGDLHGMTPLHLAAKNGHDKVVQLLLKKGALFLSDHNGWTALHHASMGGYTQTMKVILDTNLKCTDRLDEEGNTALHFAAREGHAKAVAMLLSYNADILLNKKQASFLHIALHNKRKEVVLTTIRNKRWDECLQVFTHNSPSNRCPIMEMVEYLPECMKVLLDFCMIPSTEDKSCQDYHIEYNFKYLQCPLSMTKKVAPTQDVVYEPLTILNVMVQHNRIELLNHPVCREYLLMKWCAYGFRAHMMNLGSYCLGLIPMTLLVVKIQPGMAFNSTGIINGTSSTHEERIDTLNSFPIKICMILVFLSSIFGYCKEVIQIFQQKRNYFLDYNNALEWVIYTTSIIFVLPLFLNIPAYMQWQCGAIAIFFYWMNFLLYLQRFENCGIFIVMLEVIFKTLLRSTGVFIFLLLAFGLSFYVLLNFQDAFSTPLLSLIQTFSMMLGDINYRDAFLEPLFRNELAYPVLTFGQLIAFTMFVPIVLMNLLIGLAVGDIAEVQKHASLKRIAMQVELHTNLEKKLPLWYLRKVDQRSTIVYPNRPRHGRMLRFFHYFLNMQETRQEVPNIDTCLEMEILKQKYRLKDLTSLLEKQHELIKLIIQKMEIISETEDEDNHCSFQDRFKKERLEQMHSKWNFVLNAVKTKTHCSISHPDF
endpoint-label: pIC50
Note on units: pIC50 is unitless, being -log10 of a concentration expressed in mol/L.

Lookup: Would you mind telling me what pIC50 value was observed for `CC(=C\c1ccc(Cl)cc1)/C(C)=N/O` ?
Found: 5.35

###

Kindly supply the reported pIC50 values for the records listed here.
biological target: Transient receptor potential cation channel subfamily A member 1 (Homo sapiens); assay: Antagonist activity at human TRPA1 channel assessed as inhibition of allyl isothiocyanate-induced intracellular calcium influx; type: functional, cell-based
pIC50: −log10 of the molar value.

Lookup: pIC50 / Transient receptor potential cation channel subfamily A member 1 (Homo sapiens) / `Cn1c(=O)c2c(ncn2CC(=O)Nc2nc(-c3ccccc3)cs2)n(C)c1=O`
Found: > 6.00

Lookup: Follow-up entry: `Cn1c(=O)c2c(ncn2CC(=O)Nc2nc(-c3ccccc3F)cs2)n(C)c1=O`
Found: > 6.00

Lookup: Follow-up entry: CCC(C)c1ccc(NC(=O)Cn2cnc3c2c(=O)n(C)c(=O)n3C)cc1 (stereo not given)
Found: 4.84

Lookup: Follow-up entry: `Cn1c(=O)c2c(ncn2CC(=O)Nc2nc(-c3ccc(Br)cc3)cs2)n(C)c1=O`
Found: > 6.00

Lookup: Follow-up entry: `CCOc1ccccc1-c1csc(NC(=O)Cn2cnc3c2c(=O)n(C)c(=O)n3C)n1`
Found: > 6.00

Lookup: Follow-up entry: `COc1cccc(-c2csc(NC(=O)Cn3cnc4c3c(=O)n(C)c(=O)n4C)n2)c1`
Found: > 6.00

Lookup: Follow-up entry: `CCc1ccc(-c2csc(NC(=O)Cn3cnc4c3c(=O)n(C)c(=O)n4C)n2)cc1`
Found: > 6.00

Lookup: Follow-up entry: `Cn1c(=O)c2c(ncn2CC(=O)Nc2nc(-c3cccc(Cl)c3)cs2)n(C)c1=O`
Found: > 6.00

Lookup: Follow-up entry: `CC(C)c1ccc(NC(=O)Cn2cnc3c2c(=O)n(C)c(=O)n3C)cc1`
Found: 5.21

Lookup: Follow-up entry: `Cn1c(=O)c2c(ncn2CC(=O)Nc2nc(-c3cccc(F)c3)cs2)n(C)c1=O`
Found: > 6.00

###

biological target: UniProtKB Q8BLA8; assay: Agonist activity at TRPA1 channel in mouse dorsal root ganglion cells assessed as increase in intracellular calcium influx by radiometric Ca2+ imaging; format: functional, tissue-based
endpoint-label: pEC50
Note on units: pEC50 is unitless, being -log10 of a concentration expressed in mol/L.

Lookup: Would you mind telling me what pEC50 value was observed for `CC1(C)C[C@H]2C=C(C=O)[C@]3(C=O)C[C@]3(C)[C@H]2C1` ?
Found: 3.89
